# CONDITIONS_USED: in DMF, 288.15 K
PROPERTY_MEASURED: solubility (mole fraction)

The value of solubility (mole fraction) measured for the compound CC(C)C(=O)Nc1ccc([N+](=O)[O-])c(C(F)(F)F)c1 turned out to be 0.401

====

# CONDITIONS_USED: in methyl acetate, 318.15 K
PROPERTY_MEASURED: solubility (mole fraction)
Answer with a bare number; do not write a unit.

The value of solubility (mole fraction) measured for the compound CC(C)C(=O)Nc1ccc([N+](=O)[O-])c(C(F)(F)F)c1 turned out to be 0.192

====

# CONDITIONS_USED: in ethylene glycol, 283.15 K
PROPERTY_MEASURED: solubility (mole fraction)

The value of solubility (mole fraction) measured for the molecule CC(C)C(=O)Nc1ccc([N+](=O)[O-])c(C(F)(F)F)c1 turned out to be 0.00116

====

# CONDITIONS_USED: in ethylene glycol, 288.15 K
PROPERTY_MEASURED: solubility (mole fraction)
Answer with a bare number; do not write a unit.

The value of solubility (mole fraction) measured for the compound CC(C)C(=O)Nc1ccc([N+](=O)[O-])c(C(F)(F)F)c1 turned out to be 0.0015

====

# CONDITIONS_USED: in ethanol, 303.15 K
PROPERTY_MEASURED: solubility (mole fraction)
Answer with a bare number; do not write a unit.

The value of solubility (mole fraction) measured for the compound CC(C)C(=O)Nc1ccc([N+](=O)[O-])c(C(F)(F)F)c1 turned out to be 0.083

====

# CONDITIONS_USED: in methyl acetate, 313.15 K
PROPERTY_MEASURED: solubility (mole fraction)
Answer with a bare number; do not write a unit.

The value of solubility (mole fraction) measured for the compound CC(C)C(=O)Nc1ccc([N+](=O)[O-])c(C(F)(F)F)c1 turned out to be 0.175

====

# CONDITIONS_USED: in ethyl acetate, 303.15 K
PROPERTY_MEASURED: solubility (mole fraction)
Answer with a bare number; do not write a unit.

The value of solubility (mole fraction) measured for the compound CC(C)C(=O)Nc1ccc([N+](=O)[O-])c(C(F)(F)F)c1 turned out to be 0.156

====

# CONDITIONS_USED: in acetone, 318.15 K
PROPERTY_MEASURED: solubility (mole fraction)
Answer with a bare number; do not write a unit.

The value of solubility (mole fraction) measured for the molecule CC(C)C(=O)Nc1ccc([N+](=O)[O-])c(C(F)(F)F)c1 turned out to be 0.273

====

# CONDITIONS_USED: in acetone, 288.15 K
PROPERTY_MEASURED: solubility (mole fraction)

The value of solubility (mole fraction) measured for the molecule CC(C)C(=O)Nc1ccc([N+](=O)[O-])c(C(F)(F)F)c1 turned out to be 0.185

====

# CONDITIONS_USED: in ethanol, 318.15 K
PROPERTY_MEASURED: solubility (mole fraction)

The value of solubility (mole fraction) measured for the compound CC(C)C(=O)Nc1ccc([N+](=O)[O-])c(C(F)(F)F)c1 turned out to be 0.135

====

# CONDITIONS_USED: in DMSO, 293.15 K
PROPERTY_MEASURED: solubility (mole fraction)
Answer with a bare number; do not write a unit.

The value of solubility (mole fraction) measured for the compound CC(C)C(=O)Nc1ccc([N+](=O)[O-])c(C(F)(F)F)c1 turned out to be 0.433

====

# CONDITIONS_USED: in methanol, 283.15 K
PROPERTY_MEASURED: solubility (mole fraction)

The value of solubility (mole fraction) measured for the molecule CC(C)C(=O)Nc1ccc([N+](=O)[O-])c(C(F)(F)F)c1 turned out to be 0.0362

====

# CONDITIONS_USED: in 2-methoxyethanol, 293.15 K
PROPERTY_MEASURED: solubility (mole fraction)
Answer with a bare number; do not write a unit.

The value of solubility (mole fraction) measured for the compound CC(C)C(=O)Nc1ccc([N+](=O)[O-])c(C(F)(F)F)c1 turned out to be 0.153

====

# CONDITIONS_USED: in 2-ethoxyethanol, 313.15 K
PROPERTY_MEASURED: solubility (mole fraction)
Answer with a bare number; do not write a unit.

The value of solubility (mole fraction) measured for the compound CC(C)C(=O)Nc1ccc([N+](=O)[O-])c(C(F)(F)F)c1 turned out to be 0.22

====

# CONDITIONS_USED: in DMSO, 313.15 K
PROPERTY_MEASURED: solubility (mole fraction)
Answer with a bare number; do not write a unit.

The value of solubility (mole fraction) measured for the compound CC(C)C(=O)Nc1ccc([N+](=O)[O-])c(C(F)(F)F)c1 turned out to be 0.481

====

# CONDITIONS_USED: in 2-ethoxyethanol, 283.15 K
PROPERTY_MEASURED: solubility (mole fraction)

The value of solubility (mole fraction) measured for the compound CC(C)C(=O)Nc1ccc([N+](=O)[O-])c(C(F)(F)F)c1 turned out to be 0.142

====

# CONDITIONS_USED: in methyl acetate, 298.15 K
PROPERTY_MEASURED: solubility (mole fraction)

The value of solubility (mole fraction) measured for the molecule CC(C)C(=O)Nc1ccc([N+](=O)[O-])c(C(F)(F)F)c1 turned out to be 0.135

====

# CONDITIONS_USED: in methanol, 288.15 K
PROPERTY_MEASURED: solubility (mole fraction)
Answer with a bare number; do not write a unit.

The value of solubility (mole fraction) measured for the molecule CC(C)C(=O)Nc1ccc([N+](=O)[O-])c(C(F)(F)F)c1 turned out to be 0.0446

====

# CONDITIONS_USED: in acetone, 313.15 K
PROPERTY_MEASURED: solubility (mole fraction)

The value of solubility (mole fraction) measured for the molecule CC(C)C(=O)Nc1ccc([N+](=O)[O-])c(C(F)(F)F)c1 turned out to be 0.255

====

# CONDITIONS_USED: in ethanol, 293.15 K
PROPERTY_MEASURED: solubility (mole fraction)

The value of solubility (mole fraction) measured for the compound CC(C)C(=O)Nc1ccc([N+](=O)[O-])c(C(F)(F)F)c1 turned out to be 0.0586

====

# CONDITIONS_USED: in acetone, 278.15 K
PROPERTY_MEASURED: solubility (mole fraction)
Answer with a bare number; do not write a unit.

The value of solubility (mole fraction) measured for the compound CC(C)C(=O)Nc1ccc([N+](=O)[O-])c(C(F)(F)F)c1 turned out to be 0.162

====

# CONDITIONS_USED: in ethanol, 298.15 K
PROPERTY_MEASURED: solubility (mole fraction)
Answer with a bare number; do not write a unit.

The value of solubility (mole fraction) measured for the compound CC(C)C(=O)Nc1ccc([N+](=O)[O-])c(C(F)(F)F)c1 turned out to be 0.0699

====

# CONDITIONS_USED: in ethylene glycol, 318.15 K
PROPERTY_MEASURED: solubility (mole fraction)
Answer with a bare number; do not write a unit.

The value of solubility (mole fraction) measured for the compound CC(C)C(=O)Nc1ccc([N+](=O)[O-])c(C(F)(F)F)c1 turned out to be 0.0061

====

# CONDITIONS_USED: in 2-methoxyethanol, 323.15 K
PROPERTY_MEASURED: solubility (mole fraction)
Answer with a bare number; do not write a unit.

The value of solubility (mole fraction) measured for the molecule CC(C)C(=O)Nc1ccc([N+](=O)[O-])c(C(F)(F)F)c1 turned out to be 0.25

====

# CONDITIONS_USED: in 2-ethoxyethanol, 318.15 K
PROPERTY_MEASURED: solubility (mole fraction)

The value of solubility (mole fraction) measured for the compound CC(C)C(=O)Nc1ccc([N+](=O)[O-])c(C(F)(F)F)c1 turned out to be 0.237

====

# CONDITIONS_USED: in DMF, 318.15 K
PROPERTY_MEASURED: solubility (mole fraction)
Answer with a bare number; do not write a unit.

The value of solubility (mole fraction) measured for the molecule CC(C)C(=O)Nc1ccc([N+](=O)[O-])c(C(F)(F)F)c1 turned out to be 0.476

====

# CONDITIONS_USED: in DMF, 298.15 K
PROPERTY_MEASURED: solubility (mole fraction)
Answer with a bare number; do not write a unit.

The value of solubility (mole fraction) measured for the compound CC(C)C(=O)Nc1ccc([N+](=O)[O-])c(C(F)(F)F)c1 turned out to be 0.421

====

# CONDITIONS_USED: in acetone, 308.15 K
PROPERTY_MEASURED: solubility (mole fraction)
Answer with a bare number; do not write a unit.

The value of solubility (mole fraction) measured for the compound CC(C)C(=O)Nc1ccc([N+](=O)[O-])c(C(F)(F)F)c1 turned out to be 0.238
